Hey, just so you know, these numbers are from PubChem BioAssay AID1963828.

Tested on: 991263-137-R1-J2-PDC complex spheroid viability
test method notes: Anticancer human tumor 991263-137-R1-J2-PDC patient-derived colon adenocarcinoma cell line growth inhibition [POLQ]
assay conditions: second compound 10 µM; first compound 1 µM; stronger effect = lower value
hey, just use satisfied if measured viability, T/C is less than 90%, otherwise not satisfied

{"compound": "C=CCn1c(=O)c2cnc(Nc3ccc(N4CCN(C)CC4)cc3)nc2n1-c1cccc(C(C)(C)O)n1 + COC1C(OC(N)=O)C(O)C(Oc2ccc3c(O)c(NC(=O)c4ccc(O)c(CC=C(C)C)c4)c(=O)oc3c2C)OC1(C)C", "target of assay": "991263-137-R1-J2-PDC complex spheroid viability", "classification": "not satisfied"}
{"compound": "CCc1cc2c(N3CCc4c(cc(Cn5ccnc5)cc4-c4cn(C)nc4C(F)(F)F)C3=O)cc(C)nc2c(OC)n1 + Nc1ccc(C#CCN(C(=O)Cc2ncc(C(F)(F)F)cc2C(F)(F)F)c2ccc(F)cc2)nn1", "target of assay": "991263-137-R1-J2-PDC complex spheroid viability", "classification": "not satisfied"}
{"compound": "C=CCn1c(=O)c2cnc(Nc3ccc(N4CCN(C)CC4)cc3)nc2n1-c1cccc(C(C)(C)O)n1 + Nc1ccc(C#CCN(C(=O)Cc2ncc(C(F)(F)F)cc2C(F)(F)F)c2ccc(F)cc2)nn1", "target of assay": "991263-137-R1-J2-PDC complex spheroid viability", "classification": "satisfied"}
{"compound": "CCc1c2c(nc3ccc(O)cc13)-c1cc3c(c(=O)n1C2)COC(=O)[C@]3(O)CC + COC1C(OC(N)=O)C(O)C(Oc2ccc3c(O)c(NC(=O)c4ccc(O)c(CC=C(C)C)c4)c(=O)oc3c2C)OC1(C)C", "target of assay": "991263-137-R1-J2-PDC complex spheroid viability", "classification": "satisfied"}
{"compound": "O=C(c1cc(Cc2n[nH]c(=O)c3ccccc23)ccc1F)N1CCN(C(=O)C2CC2)CC1 + COC1C(OC(N)=O)C(O)C(Oc2ccc3c(O)c(NC(=O)c4ccc(O)c(CC=C(C)C)c4)c(=O)oc3c2C)OC1(C)C", "target of assay": "991263-137-R1-J2-PDC complex spheroid viability", "classification": "satisfied"}
{"compound": "O=C(Nc1ccc(O)c(NS(=O)(=O)c2ccc(F)cc2)c1)c1ccc(-c2ccccc2)cc1 + COC1C(OC(N)=O)C(O)C(Oc2ccc3c(O)c(NC(=O)c4ccc(O)c(CC=C(C)C)c4)c(=O)oc3c2C)OC1(C)C", "target of assay": "991263-137-R1-J2-PDC complex spheroid viability", "classification": "not satisfied"}
{"compound": "COc1cc2cc(C(=O)CCC(=O)O)sc2cc1OC + COC1C(OC(N)=O)C(O)C(Oc2ccc3c(O)c(NC(=O)c4ccc(O)c(CC=C(C)C)c4)c(=O)oc3c2C)OC1(C)C", "target of assay": "991263-137-R1-J2-PDC complex spheroid viability", "classification": "not satisfied"}
{"compound": "O=c1[nH]cc(F)c(=O)[nH]1 + Nc1ccc(C#CCN(C(=O)Cc2ncc(C(F)(F)F)cc2C(F)(F)F)c2ccc(F)cc2)nn1", "target of assay": "991263-137-R1-J2-PDC complex spheroid viability", "classification": "satisfied"}
{"compound": "Nc1ccn(C2OC(CO)C(O)C2(F)F)c(=O)n1 (stereo not given) + COC1C(OC(N)=O)C(O)C(Oc2ccc3c(O)c(NC(=O)c4ccc(O)c(CC=C(C)C)c4)c(=O)oc3c2C)OC1(C)C", "target of assay": "991263-137-R1-J2-PDC complex spheroid viability", "classification": "satisfied"}
{"compound": "C#Cc1c(F)ccc2cc(O)cc(-c3ncc4c(N5CC6CCC(C5)N6)nc(OCC56CCCN5CC(F)C6)nc4c3F)c12 (stereo not given) + Nc1ccc(C#CCN(C(=O)Cc2ncc(C(F)(F)F)cc2C(F)(F)F)c2ccc(F)cc2)nn1", "target of assay": "991263-137-R1-J2-PDC complex spheroid viability", "classification": "not satisfied"}

---

Test system: 991263-137-R1-J2-PDC complex spheroid viability
test method notes: Anticancer human tumor 991263-137-R1-J2-PDC cell line growth inhibition [POLQ];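 further: spheroids exposed to compounds for 7 days before readout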
assay conditions: curve of first compound; second compound 10 µM

{"compound": "COc1ccc([C@@H](O)c2cc(-c3ncnc4cc(N5CCOCC5)ccc34)c(F)cc2Cl)nn1 + Nc1ccc(C#CCN(C(=O)Cc2ncc(C(F)(F)F)cc2C(F)(F)F)c2ccc(F)cc2)nn1", "unit string": "nM", "operator": "=", "IC50": 2960}
{"compound": "CCc1cc2c(N3CCc4c(cc(Cn5ccnc5)cc4-c4cn(C)nc4C(F)(F)F)C3=O)cc(C)nc2c(OC)n1 + Nc1ccc(C#CCN(C(=O)Cc2ncc(C(F)(F)F)cc2C(F)(F)F)c2ccc(F)cc2)nn1", "unit string": "nM", "operator": ">", "IC50": 10000}
{"compound": "CC1COCCN1c1cc(-c2ccnn2C)c2ccnc(-c3ccn[nH]3)c2n1 (stereo not given) + Nc1ccc(C#CCN(C(=O)Cc2ncc(C(F)(F)F)cc2C(F)(F)F)c2ccc(F)cc2)nn1", "unit string": "nM", "operator": "=", "IC50": 918}
{"compound": "C=CCn1c(=O)c2cnc(Nc3ccc(N4CCN(C)CC4)cc3)nc2n1-c1cccc(C(C)(C)O)n1 + Cc1cccc(N(C)C(=O)C2C(O)CCN2c2nc(C)cc(C(F)(F)F)c2C#N)c1", "unit string": "nM", "operator": ">", "IC50": 1000}
{"compound": "C=CCn1c(=O)c2cnc(Nc3ccc(N4CCN(C)CC4)cc3)nc2n1-c1cccc(C(C)(C)O)n1 + COC1C(OC(N)=O)C(O)C(Oc2ccc3c(O)c(NC(=O)c4ccc(O)c(CC=C(C)C)c4)c(=O)oc3c2C)OC1(C)C", "unit string": "nM", "operator": ">", "IC50": 1000}
{"compound": "C=CC(=O)N1CCN(c2nc(=O)n(-c3c(C)ccnc3C(C)C)c3nc(-c4c(O)cccc4F)c(F)cc23)C(C)C1 (stereo not given) + COC1C(OC(N)=O)C(O)C(Oc2ccc3c(O)c(NC(=O)c4ccc(O)c(CC=C(C)C)c4)c(=O)oc3c2C)OC1(C)C", "unit string": "nM", "operator": ">", "IC50": 10000}
{"compound": "COc1ccc([C@@H](O)c2cc(-c3ncnc4cc(N5CCOCC5)ccc34)c(F)cc2Cl)nn1 + COC1C(OC(N)=O)C(O)C(Oc2ccc3c(O)c(NC(=O)c4ccc(O)c(CC=C(C)C)c4)c(=O)oc3c2C)OC1(C)C", "unit string": "nM", "operator": "=", "IC50": 6090}
{"compound": "Nc1ccn(C2OC(CO)C(O)C2(F)F)c(=O)n1 (stereo not given) + Cc1cccc(N(C)C(=O)C2C(O)CCN2c2nc(C)cc(C(F)(F)F)c2C#N)c1", "unit string": "nM", "operator": "=", "IC50": 2030}
{"compound": "CC[C@@]1(O)C(=O)OCc2c1cc1n(c2=O)Cc2cc3c(CN(C)C)c(O)ccc3nc2-1 + Cc1cccc(N(C)C(=O)C2C(O)CCN2c2nc(C)cc(C(F)(F)F)c2C#N)c1", "unit string": "nM", "operator": ">", "IC50": 100}
{"compound": "CC(C)n1c(=O)n(C)c2cnc3cc(F)c(-c4ccc(OCCCN5CCCCC5)nc4)cc3c21 + COC1C(OC(N)=O)C(O)C(Oc2ccc3c(O)c(NC(=O)c4ccc(O)c(CC=C(C)C)c4)c(=O)oc3c2C)OC1(C)C", "unit string": "nM", "operator": ">", "IC50": 10000}

---

Test system: 991263-137-R1-J2-PDC complex spheroid viability
test method notes: Anticancer human tumor 991263-137-R1-J2-PDC cell line growth inhibition [POLQ];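 further: spheroids exposed to compounds for 7 days before readout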;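 on viability, T/C: 100% = DMSO vehicle control viability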
assay conditions: second compound 0.1 µM; first compound 0.0316 µM; stronger effect = lower value
Measured viability, T/C by item

{"compound": "O=c1[nH]cc(F)c(=O)[nH]1 + Nc1ccc(C#CCN(C(=O)Cc2ncc(C(F)(F)F)cc2C(F)(F)F)c2ccc(F)cc2)nn1", "viability, T/C, %": 113}
{"compound": "CC[C@@]1(O)C(=O)OCc2c1cc1n(c2=O)Cc2cc3c(CN(C)C)c(O)ccc3nc2-1 + Nc1ccc(C#CCN(C(=O)Cc2ncc(C(F)(F)F)cc2C(F)(F)F)c2ccc(F)cc2)nn1", "viability, T/C, %": 101}
{"compound": "COc1cc2cc(C(=O)CCC(=O)O)sc2cc1OC + Cc1cccc(N(C)C(=O)C2C(O)CCN2c2nc(C)cc(C(F)(F)F)c2C#N)c1", "viability, T/C, %": 91.5}
{"compound": "C=CCn1c(=O)c2cnc(Nc3ccc(N4CCN(C)CC4)cc3)nc2n1-c1cccc(C(C)(C)O)n1 + COC1C(OC(N)=O)C(O)C(Oc2ccc3c(O)c(NC(=O)c4ccc(O)c(CC=C(C)C)c4)c(=O)oc3c2C)OC1(C)C", "viability, T/C, %": 91.1}
{"compound": "O=C(c1cc(Cc2n[nH]c(=O)c3ccccc23)ccc1F)N1CCN(C(=O)C2CC2)CC1 + Cc1cccc(N(C)C(=O)C2C(O)CCN2c2nc(C)cc(C(F)(F)F)c2C#N)c1", "viability, T/C, %": 101}
{"compound": "COc1cccc(OCCCN)c1-c1cc(Nc2cnc(C#N)cn2)n[nH]1 + Cc1cccc(N(C)C(=O)C2C(O)CCN2c2nc(C)cc(C(F)(F)F)c2C#N)c1", "viability, T/C, %": 104}
